The reported numbers originate from paper PMC6556434.

Biological target: H3(20-35)K27me3 peptide
Assay: ITC
observationType: pKd
Answers are plain numbers, as −log10 of the molar value.

Prompt: Request the reported pKd associated with EARLY BOLTING IN SHORT DAY (EBS), full length (from UniProt F4JL28 1-234) (natural protein)
Response: 4.30

###

Target: H3(1-15)K4me3 peptide
Assay: ITC
observationType: Kd (µM)
Give bare numbers, in µM.

Prompt: Given the entry EARLY BOLTING IN SHORT DAY (EBS), full length (from UniProt F4JL28 1-234) (natural protein) , what Kd was observed with H3(1-15)K4me3 peptide?
Response: 86.8
